Target: CD73 on U138 human neuroglioma cells (Homo sapiens, UniProt P21589)
Construct: U138 cells were obtained from ATCC and cultured in DMEM with 10% FBS; host or cells: U138 human neuroglioma cells
Sequence (P21589 27-549): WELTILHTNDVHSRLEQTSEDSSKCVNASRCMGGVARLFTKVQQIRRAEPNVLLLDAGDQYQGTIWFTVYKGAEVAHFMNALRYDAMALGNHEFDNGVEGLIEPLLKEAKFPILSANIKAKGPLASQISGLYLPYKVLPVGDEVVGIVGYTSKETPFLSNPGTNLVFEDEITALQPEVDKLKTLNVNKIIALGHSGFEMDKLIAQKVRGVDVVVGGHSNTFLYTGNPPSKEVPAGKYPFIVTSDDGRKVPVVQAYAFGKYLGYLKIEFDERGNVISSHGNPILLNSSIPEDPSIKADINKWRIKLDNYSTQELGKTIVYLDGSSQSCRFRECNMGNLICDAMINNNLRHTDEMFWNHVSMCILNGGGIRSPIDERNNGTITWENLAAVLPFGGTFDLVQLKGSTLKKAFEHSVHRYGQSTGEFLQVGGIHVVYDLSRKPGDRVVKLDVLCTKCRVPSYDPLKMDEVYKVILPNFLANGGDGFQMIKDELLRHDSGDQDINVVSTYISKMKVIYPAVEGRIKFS
Assay: CD73 Cell-Based Assay
Settings: U138 cells, AMP substrate, 2 hours at 37° C., inorganic phosphate by malachite green
pIC50: −log10 of the molar value.
property.measured: pIC50

// below: answered compounds
> print(dat)
                              sample.smiles    meas.value
1  C[C@@H](Nc1nc(C#N)nc2c1ccn2[C@@H]1O[C@H](COCP(=O)(O)O)[C@@H](O)[C@H]1O)c1ccc(C#N)cc1  7.00 to 8.00
2  N#Cc1nc(N2CCC(F)(F)C2)c2ccn([C@@H]3O[C@H](COCP(=O)(O)O)[C@@H](O)[C@H]3O)c2n1        > 8.00
3  CC(C)(C)C(=O)OCOP(=O)(O)CS(=O)(=O)C[C@H]1O[C@@H](n2ccc3c(NC4CCCC4)nc(Cl)nc32)[C@H](O)[C@@H]1O        > 8.00

Please turn your attention to the following entry.
I have this compound here, C[C@H](Nc1nc(C#N)nc2c1ccn2[C@@H]1O[C@H](COCP(=O)(O)O)[C@@H](O)[C@H]1O)c1cccc(F)c1 , and I need its recorded pIC50.
7.00 to 8.00
